The reported measurements were obtained from patent CN117255804A.

# Assay Target: T1, 人4-1BB (human, UniProt Q07011 24-255)
# T1 construct: whole, on cells; also called TNFRSF9; CD137
# T1 sequence (Q07011 24-255): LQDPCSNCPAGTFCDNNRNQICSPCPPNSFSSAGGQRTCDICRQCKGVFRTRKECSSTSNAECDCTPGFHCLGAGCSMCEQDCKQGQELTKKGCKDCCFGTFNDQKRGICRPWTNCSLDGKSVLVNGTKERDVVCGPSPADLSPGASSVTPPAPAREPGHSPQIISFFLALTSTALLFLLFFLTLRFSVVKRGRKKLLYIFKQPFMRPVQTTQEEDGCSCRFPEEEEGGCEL
# Test: FACS on HEK293 cells expressing human 4-1BB, 1.0 ug/ml
Value Type: binding result

Look over these answered cases.
[
  {
    "Binder": "382A3E3-VH1-VL4 (antibody, IgG4, V domains shown, Humanized mAb; Only VH and VL are tied to it) VH: EVQLVESGGGLVQPGGSLRLSCAASGFTFSDYGMSWVRQAPGKGLEWVSFISNVAYGIFYADTVTGRFTISRDNAKNSLYLQMNSLRAEDTAVYYCARDELGRFDYWGQGTLVTVSS VL: DIQMTQSPSSLSASVGDRVTITCHVSQNINIWLSWYQQKPGKVPKLLIYKASNLHTGVPSRFSGSGSGTDFTLTISSLQPEDVATYYCQQGQTFPRTFGQGTKVEIK",
    "binding result": "binds"
  },
  {
    "Binder": "382A3E3-VH1-VL5 (antibody, IgG4, V domains shown, Humanized mAb; Only VH and VL are tied to it) VH: EVQLVESGGGLVQPGGSLRLSCAASGFTFSDYGMSWVRQAPGKGLEWVSFISNVAYGIFYADTVTGRFTISRDNAKNSLYLQMNSLRAEDTAVYYCARDELGRFDYWGQGTLVTVSS VL: DIQLTQSPSFLSASVGDRVTITCHVSQNINIWLSWYQQKPGKAPKLLIYKASNLHTGVPSRFSGSGSGTEFTLTISSLQPEDFATYYCQQGQTFPRTFGGGTKVEIK",
    "binding result": "binds"
  },
  {
    "Binder": "367C3A3-VH2-VL1 (antibody, IgG4, V domains shown, Humanized mAb; Only VH and VL are tied to it) VH: QVQLVQSGAEVKKPGASVKVSCKASGYTFTDYSMHWVRQAPGQRLEWMGWINTETGEPTYADDFKGRVTITRDTSASTAYMELSSLRSEDTAVYYCARYDYAMDYWGQGTLVTVSS VL: DIQMTQSPSSLSASVGDRVTITCKASQDVSSAVAWYQQKPGKAPKLLIYWASIRHTGVPSRFSGSGSGTDFTLTISSLQPEDFATYYCQQRYTTPPTFGGGTKVEIK",
    "binding result": "binds"
  },
  {
    "Binder": "367C3A3-VH2-VL2 (antibody, IgG4, V domains shown, Humanized mAb; Only VH and VL are tied to it) VH: QVQLVQSGAEVKKPGASVKVSCKASGYTFTDYSMHWVRQAPGQRLEWMGWINTETGEPTYADDFKGRVTITRDTSASTAYMELSSLRSEDTAVYYCARYDYAMDYWGQGTLVTVSS VL: DIQMTQSPSTLSASVGDRVTITCKASQDVSSAVAWYQQKSGKAPKLLIYWASIRHTGVPSRFSGSGSGTEFTLTISSLQPDDFATYYCQQRYTTPPTFGGGTKVEIK",
    "binding result": "binds"
  }
]

Attention now shifts to the item below.
Look up binding result: 379E7A6-VH1-VL2 (antibody, IgG4, V domains shown, Humanized mAb; Only VH and VL are tied to it) VH: EVQLLESGGGLVQPGGSLRLSCAASGFTFSDYGMAWVRQAPGKGLEWVSFISNVAYSKFYVDTVTGRFTISRDNSKNTLYLQMNSLRAEDTAVYYCARDELGRFPYWGQGTLVTVSS VL: DIQMTQSPSTLSASVGDRVTITCHVSHNINIWLNWYQQKPGKAPKLLIYKASNLHTGVPSRFSGSGSGTEFTLTISSLQPDDFATYYCQQGQTFPRTFGGGTKVEIK
binds
